assayedSystem: human recombinant H-PGDS (Homo sapiens)
Sequence (O60760 whole entry): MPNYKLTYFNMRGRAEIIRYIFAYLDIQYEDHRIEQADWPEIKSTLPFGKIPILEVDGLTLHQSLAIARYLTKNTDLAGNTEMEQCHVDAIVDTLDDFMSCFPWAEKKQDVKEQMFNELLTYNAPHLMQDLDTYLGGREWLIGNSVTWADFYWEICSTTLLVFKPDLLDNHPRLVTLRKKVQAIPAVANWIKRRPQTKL
testDetails: Fluorescence intensity h-PGDS TBA enzyme assay (PGH2 depletion, MDA/TBA fluorescence)
Assay type: biochemical
testConditions: 1:175,000 human recombinant H-PGDS, 42 second reaction, 3-fold serial dilutions, highest concentration typically 1 μM
pIC50: −log10 of the molar value.
Overview of reported pIC50 across a group of compounds:

{"compound": "CC(C)(O)C(=O)N[C@H]1CCC[C@H](NC(=O)c2ccc(-c3cccc(F)c3)nc2)C1 (relative stereo)", "assayedSystem": "human recombinant H-PGDS (Homo sapiens)", "pIC50": 7.98}
{"compound": "C[C@@H](N)C(=O)N[C@H]1CC[C@H](NC(=O)c2ccc(-c3cccc(F)c3)nc2)CC1 [Example 113Q]", "assayedSystem": "human recombinant H-PGDS (Homo sapiens)", "pIC50": 8.01}
{"compound": "O=C(N[C@@H]1CCC[C@@H](C(=O)O)C1)c1ccc(-c2cccc(F)c2)nc1 (relative stereo) [Example 238A]", "assayedSystem": "human recombinant H-PGDS (Homo sapiens)", "pIC50": 7.56}
{"compound": "COCC(=O)N[C@H]1CC[C@H](NC(=O)c2ccc(-c3cccc(F)c3)nc2)CC1 [Example 113N]", "assayedSystem": "human recombinant H-PGDS (Homo sapiens)", "pIC50": 7.94}

* * *

assayedSystem: human recombinant H-PGDS (Homo sapiens)
testDetails: Fluorescence intensity h-PGDS TBA enzyme assay (PGH2 depletion, MDA/TBA fluorescence)
Format: biochemical
testConditions: 1:175,000 human recombinant H-PGDS, 42 second reaction, 3-fold serial dilutions, highest concentration typically 1 μM
Entries are sorted into classes by IC50 as follows: lower segment (below 10 nM), middle segment (10 nM to below 20 nM), upper segment (20 nM or more)

{"compound": "CNC(=O)N[C@H]1CC[C@H](NC(=O)c2ccc(-c3cccc(F)c3)nc2)CC1", "group": "lower segment"}
{"compound": "CC(=O)N1CC(NC[C@H]2CCC[C@@H](NC(=O)c3ccc(-c4cccc(F)c4)nc3)C2)C1 (relative stereo)", "group": "upper segment"}
{"compound": "N[C@@H]1[C@H]2CN(C(=O)[C@H]3CC[C@H](NC(=O)c4ccc(-c5cccc(F)c5)nc4)CC3)C[C@@H]12", "group": "lower segment"}
{"compound": "CC(C)(O)CNC(=O)[C@@H]1CC[C@H](NC(=O)c2ccc(-c3cccc(F)c3)nc2)C1", "group": "lower segment"}
{"compound": "O=C(NC1CCCc2ccccc21)c1ccc(-c2ccccc2)nc1 (stereo not drawn)", "group": "lower segment"}
{"compound": "O=C(N[C@@H]1CCC[C@@H](C(=O)N2CCOCC2)C1)c1ccc(-c2cccc(F)c2)nc1 (relative stereo)", "group": "middle segment"}
{"compound": "COCCNC(=O)[C@@H]1CC[C@H](NC(=O)c2ccc(-c3cccc(F)c3)nc2)C1", "group": "middle segment"}
{"compound": "COc1cccc(-c2ccc(C(=O)NC3CCCc4ccccc43)cn2)c1 (stereo not drawn)", "group": "upper segment"}
{"compound": "CC(O)[C@H]1CC[C@H](NC(=O)c2ccc(-c3cccc(F)c3)nc2)CC1 (stereo partly drawn)", "group": "lower segment"}
{"compound": "O=C(N[C@H]1CCCC[C@@H]1O)c1ccc(-c2cccc(F)c2)nc1", "group": "upper segment"}
{"compound": "O=C(N[C@H]1CCC[C@@H](CN2CC(O)C2)C1)c1ccc(-c2cccc(F)c2)nc1 (stereo in doubt)", "group": "upper segment"}
{"compound": "O=C(NC1CCC(O)(CN2CCCCC2)CC1)c1ccc(-c2cccc(F)c2)nc1 (stereo not drawn)", "group": "middle segment"}
{"compound": "CN1CCCC(C(=O)N[C@H]2CC[C@@H](NC(=O)c3ccc(-c4cccc(F)c4)nc3)CC2)C1 (relative stereo)", "group": "upper segment"}
{"compound": "CN1CCN(C(=O)N[C@@H]2CCC[C@H](NC(=O)c3ccc(-c4cccc(F)c4)nc3)C2)CC1 (relative stereo)", "group": "upper segment"}
{"compound": "CN(C)C(=O)N[C@H]1CC[C@@H](NC(=O)c2ccc(-c3cccc(F)c3)nc2)CC1", "group": "middle segment"}

* * *

assayedSystem: human recombinant H-PGDS (Homo sapiens)
testDetails: Fluorescence intensity h-PGDS TBA enzyme assay (PGH2 depletion, MDA/TBA fluorescence)
Assay type: biochemical
testConditions: 1:175,000 human recombinant H-PGDS, 42 second reaction, 3-fold serial dilutions, highest concentration typically 1 μM
Structures can show the parent of a compound that is named as a salt.
Classify: Met when IC50 is strictly less than 10 nM; Not met when IC50 is not.

{"compound": "CN(C)CCNC(=O)[C@@H]1CC[C@H](NC(=O)c2ccc(-c3cccc(F)c3)nc2)C1 [Example 167]", "group": "Not met"}
{"compound": "N[C@@H]1[C@H]2CN(C(=O)[C@H]3CCC[C@@H](NC(=O)c4ccc(-c5cccc(F)c5)nc4)C3)C[C@@H]12 [Example 190, hydrochloride]", "group": "Not met"}
{"compound": "C[C@H](O)C(=O)N[C@H]1CCC[C@H](NC(=O)c2ccc(-c3cccc(F)c3)nc2)C1 [Example 246]", "group": "Not met"}
{"compound": "C[C@]1(C(=O)O)CCC[C@@H](NC(=O)c2ccc(-c3cccc(F)c3)nc2)C1 (relative stereo) [Example 231]", "group": "Not met"}
{"compound": "C[C@@H](CO)NC(=O)[C@H]1CCC[C@@H](NC(=O)c2ccc(-c3cccc(F)c3)nc2)C1 [Example 194]", "group": "Not met"}
{"compound": "O=C(NC12CC(C1)C2)c1ccc(-c2cccc(F)c2)nc1 [Example 125]", "group": "Met"}
{"compound": "CCCOCC1(O)CCC(NC(=O)c2ccc(-c3cccc(F)c3)nc2)CC1 (stereo not drawn) [Example 228]", "group": "Not met"}
{"compound": "CC(O)[C@H]1CCC[C@@H](NC(=O)c2ccc(-c3cccc(F)c3)nc2)C1 (relative stereo) [Example 199]", "group": "Not met"}
{"compound": "O=C(CO)N[C@H]1CCC[C@H](NC(=O)c2ccc(-c3cccc(F)c3)nc2)C1 (relative stereo) [Example 245]", "group": "Not met"}
{"compound": "CN1CCN(C(=O)[C@@]2(C)CCC[C@@H](NC(=O)c3ccc(-c4cccc(F)c4)nc3)C2)CC1 [Example 230]", "group": "Not met"}
{"compound": "N[C@@H]1CCC[C@H](NC(=O)c2ccc(-c3cccc(F)c3)nc2)C1 (relative stereo) [Example 200]", "group": "Not met"}
{"compound": "O=C(NC1CCCCC1O)c1ccc(-c2cccc(F)c2)nc1 (stereo not drawn) [Example 17]", "group": "Met"}
{"compound": "O=C(NC1CCCc2ccccc21)c1ccc(-c2ccc(F)cc2)nc1 (stereo not drawn) [Example 123]", "group": "Not met"}
{"compound": "CN1CCN(C(=O)[C@H]2CC[C@@H](NC(=O)c3ccc(-c4cccc(F)c4)nc3)C2)CC1=O [Example 182]", "group": "Not met"}
{"compound": "O=C(N[C@@H]1CC[C@H](C(=O)N2CC[C@@H](F)C2)C1)c1ccc(-c2cccc(F)c2)nc1 [Example 180]", "group": "Met"}
{"compound": "Cn1nccc1C(=O)NC[C@H]1CCC[C@@H](NC(=O)c2ccc(-c3cccc(F)c3)nc2)C1 (relative stereo) [Example 255]", "group": "Not met"}
{"compound": "CNCCNC(=O)[C@H]1CCC[C@@H](NC(=O)c2ccc(-c3cccc(F)c3)nc2)C1 (relative stereo) [Example 189]", "group": "Not met"}
{"compound": "N[C@H]1CCCC[C@H]1NC(=O)[C@H]1CC[C@H](NC(=O)c2ccc(-c3cccc(F)c3)nc2)CC1 [Example 113D]", "group": "Not met"}
{"compound": "CN(C(=O)[C@H]1CC[C@H](NC(=O)c2ccc(-c3cccc(F)c3)nc2)CC1)C1CCNCC1 [Example 211]", "group": "Not met"}
{"compound": "O=C(N[C@H]1CC[C@H](C(=O)N[C@H]2CCNC2=O)CC1)c1ccc(-c2cccc(F)c2)nc1 [Example 113C]", "group": "Met"}
{"compound": "O=C(N[C@@H]1CCC[C@H](CO)C1)c1ccc(-c2cccc(F)c2)nc1 (relative stereo) [Example 251A]", "group": "Not met"}
{"compound": "CC(C)(CO)NC(=O)[C@H]1CCC[C@@H](NC(=O)c2ccc(-c3cccc(F)c3)nc2)C1 (relative stereo) [Example 196]", "group": "Met"}
{"compound": "CN(C)C(=O)[C@@H]1CCC[C@@H](NC(=O)c2ccc(-c3cccc(F)c3)nc2)C1 (relative stereo) [Example 238]", "group": "Not met"}
{"compound": "O=C(NC1CCCc2ccccc21)c1ccc(-c2cccc(F)c2)nc1 (stereo not drawn) [Example 122]", "group": "Met"}
{"compound": "C[C@H](CO)NC(=O)[C@@H]1CC[C@H](NC(=O)c2ccc(-c3cccc(F)c3)nc2)C1 [Example 164]", "group": "Not met"}
{"compound": "O=C(N[C@H]1CC[C@H](C(=O)NCCN2CCCCC2)CC1)c1ccc(-c2cccc(F)c2)nc1 [Example 113H]", "group": "Not met"}
{"compound": "COC(=O)C1(NC(=O)c2ccc(-c3ccc(F)cc3)nc2)CC1 [Example 5]", "group": "Not met"}
{"compound": "NCC(=O)N[C@H]1CC[C@@H](NC(=O)c2ccc(-c3cccc(F)c3)nc2)CC1 [Example 224]", "group": "Not met"}
{"compound": "O=C(N[C@@H]1CCC[C@@H](C(=O)N2CCCC2)C1)c1ccc(-c2cccc(F)c2)nc1 (relative stereo) [Example 239]", "group": "Not met"}
